molecular target: VP1 capsid protein on BKV pseudovirions of genotype IVc2 (A-66H; AB369093) (BK virus genotype IVc2 (A-66H)); assay: cell-based or functional assay
measurement_name: Neutralization PSV IC50

Check out these entries, answers already filled in.
{"binder": "antibody G6P7 (antibody, V domains shown) VH: QVQLQESGPGLVRPSETLSLTCTVSGGSISPYYWNWIRQPPGKGLEWIGYIYYSGNTKYNPSLKSRVTISVDTSKNQFSLKLSSVSAADTAVYYCARDSCSGTCYLGDNWFDPWGQGTLVTVSS VL: QSVLTQPPPVSGAPGQRVTISCTGSSSNIGANNDVHWYQHLPGTAPKLLIYGNNHRPSGVPDRFSGSKSGTSASLAITGLQAEDEADYYCQSYDSSLSTSKVFGGGTKLTVL", "endpoint_value": "0.883 µg/mL"}
{"binder": "antibody B2P8 (antibody, V domains shown) VH: QVQLQESGPGLVKPSETLSLTCTVSGGSIRNSYWSWIRQPPGKGLEWIGYIYYTGTTNSNPSLKSRVTISVHMSQNQISLKLNSVTPADTAVYYCAQGGGSGDLHYWGQGTLVTVSS VL: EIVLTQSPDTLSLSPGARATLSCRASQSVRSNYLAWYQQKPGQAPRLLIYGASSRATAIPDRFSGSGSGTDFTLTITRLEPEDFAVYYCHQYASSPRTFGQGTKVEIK", "endpoint_value": "> 50 µg/mL"}
{"binder": "antibody G7P3 (antibody, V domains shown) VH: EVQLVESGGGLVQPGGSLRLSCAASGFSFGSYSMNWVRQAPGKGLEWVSHISSGSSSIYYADSVKGRFTISRDSVKNSLYLQMNNLRAEDTAVYYCARGWTGYDAFDIWGQGTMVTVSS VL: DIQMTQSPSSLSASVGDRVTITCRASQVISNYLAWYQEKPGKVPKLLIYAASTLQSGVPSRFSGSGTGTDFTLTIRSLQPEDVATYYCQKYNNAPLTFGGGTKVEIK", "endpoint_value": "> 50 µg/mL"}
{"binder": "antibody E8P5 (antibody, V domains shown) VH: EVQLVESGGGLVHPGGSLRLSCAASGFRFGTYSMNWVRQAPGKGLEWVSHISSGSSSIYYADSVKGRFTISRDSVKNSLYLQMNNLRAEDTAVYFCARGWTGYDAFDIWGQGTMVTVSS VL: DIQMTQSPSSLSASVGDRVTITCRASQVISNYLAWYQEKPGEVPKLLIYAASTLQSGVPSRFSGSGTGTDFTLTISSLQPEDVATYYCQKYNNAPLTFGGGTKVEIK", "endpoint_value": "> 50 µg/mL"}
{"binder": "antibody C10P7 (antibody, V domains shown) VH: QVQLVQSGSEVKKPGTSVKVSCKASGETYVGHSISWVRQAPGAGLEWMGWISLHNGNVKYAQKLQGRVTMTTDTSTITAYMELRNLTSDDTAVYYCARVPMKIYGVIVFGEYYYDQLDVWGQGTTVTVSS VL: QSALTQPPSASGSPGQSVTISCTGTGSDVGGYNYVSWYQQHPGKAPKLMIYEVSKRPSGVPDRFSGSKSGNTASLTVSGLQAEDEADYYCSSYAGSKVVFGGGTKLTVL", "endpoint_value": "> 50 µg/mL"}

Could you tell me which Neutralization PSV IC50 is on file for antibody B10P5 (antibody, V domains shown) VH: EVQLVESGGGLVQPGGSLRLSCSASGFTFSTYTMNWVRQAPGKGLDWVSYISSRSTSIYYADSVKGRFTISRDNAKNSLYLHMTSLRAEDTAVYYCVRDRGYYGSNWFDSWGQGTLVTVSS VL: QSALTQPRSVSGSPGQSVTISCTGTSSDVGNYNYVSWYQQHPGKAPRLMISDVTKRPSGVPDRFSGSKSGNTASLTISGLQAEDEGDYYCCAYAGSYTLVFGGGTKLTVL ? > 50 µg/mL

Request: antibody F2P7 (antibody, V domains shown) VH: EVQLVQSGGGLVQPGGSLKLSCAASGFSSSGSEIHWVRQASGRGLEWIGRVRSTANRHAPGYTESVRGTFTVSRDESKNTASLELKSLKIEDTAVYYCTGVRGVISRYFAMDVWGQGTTVTVSS VL: QSALTQPASVSGSPGQSITISCTGTNSDLGSYNYVSWYRLHPGKDPHLIIYDVTHRPSGVSSRFSGSKSGKTASLTISGLQSEDEAEYFCCSYASVGSPIFGGGTKVTVL > 50 µg/mL

Request: antibody E4P2 (antibody, V domains shown) VH: QVQLQESGPGLVKPSQTLSLTCTVSGGSISSGGYYWSWIRQHPGKGLEWIGYMYYSGSTNYNPSLKSRVTISVDTSKNQFSLKLTSVTAADTAVYYCARDRRDYGDYYYFGMDVWGQGTTVTVSS VL: QSVLTQPPSVSGAPGQRVTISCTGSSSNIGAGYDVHWYQQLPGTAPKLLIYANSNRPSGVPDRFSGSKSGTSASLAITGLQAEDEANYYCQSYDSSLSVYVVFGGGTKLTVL > 50 µg/mL

Request: antibody C11P1 (antibody, V domains shown) VH: QVQLQESGPGLVKPSETLSLTCTVSGGSIRNSYWSWIRQPPGKGLEWIGYIYYTGTTNSNPSLKSRATISVHMSQNQISLKLNSVTPADTAVYYCAQGGGSGDLHYWGQGTLVTVSS VL: NFMLTQPASVSGSPGQSITISCTGTRSDVGGYNYVSWYQQHPGKAPKLMIYDISSRPSGVSNRFSASKSGNTASLTISGLQAEDEADYYCISFATGYTWVFGGGTRLTVL 0.0942 µg/mL

Request: antibody G5P1 (antibody, V domains shown) VH: QVQLQESGPGLVKPSGTLSLTCTVSGGSIRNSYWSWIRQPPGKGLEWIGYIYYTGTTNSNPSLKSRVTISVHMSRNQISLKLNSVTPADTAVYYCAQGGGSGDLHYWGQGTLVTVSS VL: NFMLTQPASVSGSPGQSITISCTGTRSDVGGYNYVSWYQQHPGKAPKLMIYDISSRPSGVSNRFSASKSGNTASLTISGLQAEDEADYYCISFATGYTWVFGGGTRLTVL 0.108 µg/mL
